- Target: BRISC BRCC36 W130A (Homo sapiens, UniProt P46736+Q15018+Q9NXR7, W130A)
- Experiment description: BRISC mutant IQF assay: BRCC36 W130A
- Type: biochemical
Result type: IC50

Task item: Find the recorded IC50 belonging to O=C(NC1C2CNCC21)c1nn(C(=O)c2c(Cl)cccc2Cl)cc1NC(=O)c1c(Cl)cccc1Cl (stereo not shown) and report it.
Reply: 23 µM

* * *

- Target: BRISC (Homo sapiens, UniProt P46736+Q15018+Q9NXR7)
- Construct: made in house; host or cells: Spodoptera frugiperda (Sf9) insect cells, MultiBac
- Experiment description: BRISC DUB activity assay (IQF K63-linked diubiquitin)
- Type: biochemical
- Measurement conditions: 32-point dose-response, biphasic fit; read-out: IC50(2), biphasic curve
Result type: pIC50
As a rule, pIC50 stands for the negative log10 of the concentration, concentration in M.

O=C(NC1CCNCC1)c1nn(C(=O)c2c(Cl)cccc2Cl)cc1NC(=O)c1c(Cl)cccc1Cl :: 6.77

Let us move to another entry and its pIC50.
Task item: Find the recorded pIC50 belonging to O=C(NC1C2CNCC21)c1nn(C(=O)c2c(Cl)cccc2Cl)cc1NC(=O)c1c(Cl)cccc1Cl (centres unmarked) and report it.
Reply: 6.83

* * *

- Target: BRISC BRCC45 R137A (Homo sapiens, UniProt P46736+Q15018+Q9NXR7, R137A)
- Experiment description: BRISC mutant IQF assay: BRCC45 R137A
- Experimental: IQF assays were performed in DUB reaction buffer containing 50 mM HEPES–NaOH pH 7.0, 100 mM NaCl, 0.1 mg ml^−1 BSA, 1 mM DTT and 0.03% v/v Brij-35. […] Michaelis–Menten analyses and Lineweaver–Burk plots were calculated using GraphPad Prism (version 9.0). To assess enzymatic activity, BRISC complexes were diluted to concentrations between 1 nM and 50 nM. […] DUB activity was measured using IQF K63-linked diubiquitin (LifeSensors, DU6303) at 50 nM. […]
pIC50: −log10 of the molar value.
Result type: pIC50

Task item: Find the recorded pIC50 belonging to O=C(NC1C2CNCC21)c1nn(C(=O)c2c(Cl)cccc2Cl)cc1NC(=O)c1c(Cl)cccc1Cl (stereo not shown) [FX-171-C] and report it.
Reply: < 4.00

* * *

- Target: BRISC BRCC36 L169A (Homo sapiens, UniProt P46736+Q15018+Q9NXR7, L169A)
- Experiment description: BRISC mutant IQF assay: BRCC36 L169A
Result type: pIC50
As a rule, pIC50 stands for the negative log10 of the concentration, concentration in M.

Task item: Find the recorded pIC50 belonging to O=C(NC1C2CNCC21)c1nn(C(=O)c2c(Cl)cccc2Cl)cc1NC(=O)c1c(Cl)cccc1Cl (stereo not shown) and report it.
Reply: 4.48

* * *

- Target: BRISC BRCC45 D248R (Homo sapiens, UniProt P46736+Q15018+Q9NXR7, D248R)
- Experiment description: BRISC mutant IQF assay: BRCC45 D248R
Result type: IC50

Task item: Find the recorded IC50 belonging to O=C(NC1C2CNCC21)c1nn(C(=O)c2c(Cl)cccc2Cl)cc1NC(=O)c1c(Cl)cccc1Cl (stereo not shown) and report it.
Reply: > 100 µM
